method_description: method code SF-AS, from DOI: 10.1002/chin.198834177
condition: pH 5.6
Collected logD values appear next to each entry.

{"columns": ["compound", "logD"],
 "data": [
  ["CC(C(N)=O)n1nnc2ccccc21 (centres undefined)", 0.35],
  ["CCCCC(C(=O)OCC)n1nc2ccccc2n1 (centres undefined)", 3.88],
  ["CCOC(=O)CC(C)n1nc2ccccc2n1 (centres undefined)", 2.7],
  ["CCOCC(=O)CCC(C)n1nnc2ccccc21 (centres undefined)", 2.64],
  ["CCOC(=O)C(C)(C)n1nnc2ccccc21", 2.6],
  ["CC(CC(N)=O)n1nnc2ccccc21 (centres undefined)", 0.75],
  ["CC(C)(C(N)=O)n1nnc2ccccc21", 0.76],
  ["CCCC(C(=O)OCC)n1nc2ccccc2n1 (centres undefined)", 3.38],
  ["CCCC(C(N)=O)n1nnc2ccccc21 (centres undefined)", 1.38],
  ["c1ccc2nn(C3CCCCC3)nc2c1", 3.63],
  ["CC(CCC(N)=O)n1nnc2ccccc21 (centres undefined)", 1.15],
  ["CCC(C(N)=O)n1nnc2ccccc21 (centres undefined)", 0.88],
  ["CCCCC(C(N)=O)n1nc2ccccc2n1 (centres undefined)", 2.28],
  ["CCOC(=O)CC(C)n1nnc2ccccc21 (centres undefined)", 2.27]
]}

meta.source: the SangsterLogP compilation
